- System: Hela cells
- method: Activity in Hela cells (interferon-γ induced, kynurenine readout with Ehrlich's reagent)
- Format: cell-based
- condition: Homo sapiens, interferon-γ 50 ng/mL, tryptophan 16 mg/L, 48 hours, absorption at 480 nm
observation.type: IC50

Please review the following examples before continuing.
{"compound": "O=C(Nc1ccc(Cl)cc1)[C@H]1CC12CCC(c1ccnc3ccc(F)cc13)CC2 (single isomer, unassigned) [Compound 10a]", "IC50": "0.1 to 10 nM"}
{"compound": "Cc1cc2nccc(C3CCC4(CC3)CC4C(=O)Nc3cncc(Cl)c3)c2cc1F (stereo not shown)", "IC50": "10 to 100 nM"}
{"compound": "CC1(C(=O)Nc2ccc(Cl)cc2)CC12CCC(c1ccnc3ccc(F)cc13)CC2 (stereo not shown)", "IC50": "> 100 nM"}

Go through the items and report each one's IC50.
1. O=C(Nc1ccc(Cl)cc1)C1CC12CCC(c1ccnc3ccc(F)cc13)CC2 (stereo not shown)
2. O=C(Nc1ccc(Cl)cc1)C1COC12CCC(c1ccnc3ccc(F)cc13)CC2 (stereo not shown)
3. COCCOc1ccc(NC(=O)C2CC23CCC(c2ccnc4cc(C)c(F)cc24)CC3)cc1 (stereo not shown)
4. O=C(Nc1ccc(C(F)(F)F)cc1)C1CC12CCC(c1ccnc3ccc(F)cc13)CC2 (stereo not shown)
5. O=C(Nc1ccc(F)cc1)C1CC12CCC(c1ccnc3ccc(F)cc13)CC2 (stereo not shown)
6. O=C(Nc1ccc(Cl)cc1)C1CC12CCC(c1ccnc3cc4c(cc13)OCO4)CC2 (stereo not shown)

0.1 to 10 nM
10 to 100 nM
0.1 to 10 nM
> 100 nM
10 to 100 nM
10 to 100 nM

State the recorded IC50 for every item in the following list.
1. O=S(=O)(Nc1ccc(C(F)(F)F)cc1)C1CC12CCC(c1ccnc3ccc(F)cc13)CC2 (stereo not shown)
2. O=C(Nc1ccc(F)cc1)C1COC12CCC(c1ccnc3ccc(F)cc13)CC2 (stereo not shown)
3. COCCOc1ccc(NC(=O)C2CC23CCC(c2ccnc4cc(OC)c(OC)cc24)CC3)cc1 (stereo not shown)
4. O=C(Nc1ccc(Cl)cc1)[C@@H]1CC12CCC(c1ccnc3ccc(F)cc13)CC2 (single isomer, unassigned) [Compound 10b]
5. Cc1cc2nccc(C3CCC4(CC3)CC4C(=O)Nc3ccc(C#N)cc3)c2cc1F (stereo not shown)
6. Cc1ccc(NC(=O)N2CC23CCC(c2ccnc4ccc(F)cc24)CC3)cc1 (stereo not shown)

["0.1 to 10 nM", "10 to 100 nM", "0.1 to 10 nM", "> 100 nM", "0.1 to 10 nM", "> 100 nM"]

Given the entry Cc1cc2nccc(C3CCC4(CC3)CC4C(=O)Nc3ccc(Br)cc3)c2cc1F (stereo not shown) , report its measured IC50.
0.1 to 10 nM

###

- Test system: Hela cells
- method: Activity in Hela cells (interferon-γ induced, kynurenine readout with Ehrlich's reagent)
- Format: cell-based
- condition: Homo sapiens, interferon-γ 50 ng/mL, tryptophan 16 mg/L, 48 hours, absorption at 480 nm
Exercise: for every item that follows, state its recorded IC50.

{"compound": "COc1cc2nccc(C3CCC4(CC3)CC4C(=O)Nc3ccc(Cl)cc3)c2cc1F (stereo not shown) [Compound 105]", "target.of.assay": "Hela cells", "experimental.result": "10 to 100 nM"}
{"compound": "N#Cc1ccc(NS(=O)(=O)C2CC23CCC(c2ccnc4ccc(F)cc24)CC3)cc1 (stereo not shown) [Compound 19]", "target.of.assay": "Hela cells", "experimental.result": "0.1 to 10 nM"}
{"compound": "O=C(Nc1ccc(Cl)cc1)C1CC12CCC(c1ccnc3cc(F)c(F)cc13)CC2 (stereo not shown) [Compound 100]", "target.of.assay": "Hela cells", "experimental.result": "0.1 to 10 nM"}

Now for a further compound.
Param item = COc1ccc(NS(=O)(=O)C2CC23CCC(c2ccnc4ccc(F)cc24)CC3)cc1 (stereo not shown) [Compound 17] ; retrieve measured IC50.
0.1 to 10 nM

###

- target.of.assay: human IDO1 protein (Homo sapiens, UniProt P14902)
- Construct: expressed in transfected cells; host or cells: HEK293
- Sequence (P14902 whole entry): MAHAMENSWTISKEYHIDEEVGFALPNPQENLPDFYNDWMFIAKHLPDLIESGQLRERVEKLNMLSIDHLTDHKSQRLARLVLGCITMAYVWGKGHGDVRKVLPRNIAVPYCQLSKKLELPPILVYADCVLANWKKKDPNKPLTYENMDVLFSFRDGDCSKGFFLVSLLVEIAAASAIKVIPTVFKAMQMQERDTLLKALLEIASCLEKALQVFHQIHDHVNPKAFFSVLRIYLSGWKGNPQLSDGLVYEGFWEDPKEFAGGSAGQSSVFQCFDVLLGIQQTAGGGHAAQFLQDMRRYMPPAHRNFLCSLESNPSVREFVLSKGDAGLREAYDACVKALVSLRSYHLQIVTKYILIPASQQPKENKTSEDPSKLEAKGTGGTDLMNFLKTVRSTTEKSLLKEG
- method: Activity in HEK293 cells highly expressing human IDO1 protein
- Assay type: cell-based
- condition: HEK293-IDO cells, tryptophan 16 mg/L, 24 hours, absorption at 480 nm; read-out: IC50 (HEK293 cell)
observation.type: IC50

Look over these answered cases.
{"compound": "O=C(Nc1ccc(Cl)cc1)C1CC12CCC(O)(c1ccnc3ccc(F)cc13)CC2 (stereo not shown)", "target.of.assay": "human IDO1 protein (Homo sapiens, UniProt P14902)", "observation.type": "IC50", "experimental.result": "> 100 nM"}
{"compound": "N#Cc1cc2nccc(C3CCC4(CC3)CC4C(=O)Nc3ccc(Cl)cc3)c2cc1F (stereo not shown)", "target.of.assay": "human IDO1 protein (Homo sapiens, UniProt P14902)", "observation.type": "IC50", "experimental.result": "10 to 100 nM"}
{"compound": "COCCOc1ccc(NC(=O)[C@H]2C[C@]23CC[C@H](c2ccnc4cc(C)c(F)cc42)CC3)cc1 (single isomer, unassigned)", "target.of.assay": "human IDO1 protein (Homo sapiens, UniProt P14902)", "observation.type": "IC50", "experimental.result": "0.1 to 10 nM"}

Moving on to another compound below.
// lookup IC50 for O=C(Nc1ccc(Br)cc1)C1CC12CCC(c1ccnc3ccc(F)cc13)CC2 (stereo not shown)
10 to 100 nM
